tested on: UACC-62; assay: NCI tumour cell line growth inhibition, 48 h
The source made the active and inactive calls. Cut-off read from the data, not from the text of the source: active = GI50 up to about 1.1 µM and inactive = higher.
MEASURE: GI50

## Task What does the data say about its GI50? Entry: N=c1ccn2c(n1)OC1C(OP(=O)(O)O)C(CO)OC12 (configuration not stated)
## Result 10.4 µM (inactive)

## Task Input COC1=CC2(C=CC1=O)CCNC1=C2C(=O)c2nc[nH]c2C1=O (configuration not stated)
## Result > 100 µM (inactive)

## Task And the next one, O=C1C=CC(=O)c2c(O)c(N(CCCl)CCCl)c(Cl)c(O)c21 ?
## Result > 6.07 µM (inactive)

## Task Entry COC(=O)C(Cc1nc2ccccc2nc1O)C(=O)C(=O)Nc1ccc(F)cc1 (configuration not stated) please
## Result 24.2 µM (inactive)

## Task Proceed to Cc1ccc(OCC2OC(C#N)C(Oc3ccc(C)cc3)C2Oc2ccc(C)cc2)cc1 (configuration not stated)
## Result > 100 µM (inactive)

## Task Consider next the compound O=C(c1cccc(OCc2ccccc2)c1OCc1ccccc1)N1CCSC1=S in the same way.
## Result 19.2 µM (inactive)

## Task # repeat for CC(=O)N(O)[C@@H]1CC[C@H](n2cnc3c(N)ncnc32)C1
## Result > 100 µM (inactive)

## Task Also check Cc1cc(C)c2c(n1)S(=O)(=O)N(CCCN1CCN(c3cccc(C(F)(F)F)c3)CC1)C(C(=O)c1ccc(Cl)cc1)=C2O
## Result 4.74 µM (inactive)

## Task Can you check CCOC(=O)CC(=O)ON(C)C(=O)Cc1ccccc1 next?
## Result > 100 µM (inactive)

## Task And for Cc1cccc(NC(=O)/C=C/c2ccccc2)c1C ?
## Result > 100 µM (inactive)

## Task Param item: COc1ccc2c(c1)CCc1c(C(C)=O)c3ccccc3n1C2
## Result 25.6 µM (inactive)

## Task Okay, and Cc1ccc(S(=O)(=O)N/N=C(\c2nc3ccc(Cl)cc3[nH]c2=O)C(O)c2ccco2)cc1 (configuration not stated) ?
## Result > 100 µM (inactive)

## Task Entry CCCCCC1=C2C(c3ccc(OC)cc3)=C(N)C(c3ccc(OC)cc3)=C3NC(=O)C(C=C1)C32 (configuration not stated) please
## Result 53.1 µM (inactive)

## Task Now try CCOC(=O)NC(C(F)(F)F)(C(F)(F)F)P(=O)(OC(C)C)OC(C)C .
## Result > 100 µM (inactive)

## Task Queued: COC(=O)C1Cc2ccc(C)cc2C1=O (configuration not stated)
## Result > 100 µM (inactive)

## Task And the next one, Cc1nc2ccc(NCCN(C)C)c3c(=O)c4ccccc4n1c23 ?
## Result 5.02 µM (inactive)

## Task CN(C)CCNC(=O)c1cccc2c(NC(CCCNC(=N)N)C(=O)O)c3ccccc3[n+](C)c12 (configuration not stated) , same question.
## Result > 100 µM (inactive)

## Task Moving on to O=C(CCN1CCOCC1)Nc1ccc2sc3ccccc3c(=O)c2n1
## Result 34.8 µM (inactive)

## Task Next compound: CN(C)CCC(/C=C/c1ccccc1)=N\Nc1c(F)c(F)c(F)c(F)c1F
## Result 49.2 µM (inactive)

## Task Now this one: COc1cc(C2SCC(=O)N2c2ccc(NC(=O)c3ccc(N4C(=O)CSC4c4cc(OC)c(OC)c(OC)c4)cc3)cc2)cc(OC)c1OC (configuration not stated)
## Result 24.9 µM (inactive)

## Task And for CC#CCC1CCC(OCC)=CC1=O (configuration not stated) ?
## Result > 100 µM (inactive)

## Task What do you get for O=C(N/N=C(/c1ccccc1)C(F)(F)F)c1ccncc1 ?
## Result > 100 µM (inactive)

## Task Same thing, different compound: COc1ccc2c3ccc4c(c3n(C)c2c1)C(=O)C=CC4=O
## Result 40.3 µM (inactive)

## Task What about C=C1C(O)CC[C@]2(C)C1C1OC(C)(C)O[C@]13CC(=O)C(C)=C([C@H]1OC(C)(C)OC12)C3(C)C (some centres not stated) ?
## Result > 100 µM (inactive)

## Task Request: CC1=C(C(=O)NCc2ccccc2)C(c2ccccc2[N+](=O)[O-])C(C(=O)NCc2ccccc2)=C(C)N1
## Result 8.49 µM (inactive)

## Task Also need CCCOP(=O)(OCCC)OC(C(F)(F)F)C(F)(F)F , thanks.
## Result > 100 µM (inactive)

## Task // next record COc1cc([C@@H]2c3cc4c(cc3[C@@H](/N=C/c3ccc(C(=O)O[C@H]5C[C@H]6OC[C@@]6(OC(C)=O)[C@H]6[C@H](OC(=O)c7ccccc7)[C@]7(O)C[C@H](OC(=O)[C@H](OC(=O)c8ccc(/C=N/[C@@H]9c%10cc%11c(cc%10[C@@H](c%10cc(OC)c(O)c(OC)c%10)[C@H]%10C(=O)OC[C@@H]%109)OCO%11)cc8)[C@@H](NC(=O)c8ccccc8)c8ccccc8)C(C)=C([C@@H](OC(C)=O)C(=O)[C@]56C)C7(C)C)cc3)C3COC(=O)C32)OCO4)cc(C)c1O (some centres not stated)
## Result 6.32 µM (inactive)

## Task // repeat for CC(C)=CCCC1(C)C=Cc2c(c(C)cc3c2[nH]c2cc(O)ccc23)O1 (configuration not stated) and report
## Result > 25 µM (inactive)

## Task CC(=O)NC(CCCCN(Cc1ccccc1)C(=O)N(CCCl)N=O)C(=O)NCc1ccccc1 (configuration not stated) , same question.
## Result 3.15 µM (inactive)

## Task What do we get for CC1=C(C(=O)NNC(=O)C(N)=O)CC(C(=O)NNC(=O)C(N)=O)=C(C)N1 ?
## Result > 100 µM (inactive)

## Task Check O=c1[nH]nc(-c2ccccc2)n1/N=C/c1c(O)ccc2ccccc12 too.
## Result 54.8 µM (inactive)

## Task Next entry: C[N+]1(C)C/C(=C/c2ccc(F)cc2)C(=O)/C(=C\c2ccc(F)cc2)C1
## Result 13.8 µM (inactive)

## Task Now consider CSc1ccc(-c2cc(-c3nc4ccccc4[nH]3)nc3[nH]c(-c4nc5ccccc5[nH]4)cc(=O)c23)cc1 and answer again.
## Result 92.5 µM (inactive)

## Task Would you kindly repeat that for CN(C)CCN1C(=O)c2ccccc2C1(O)c1ccc(Cl)cc1 (configuration not stated) ?
## Result 32.7 µM (inactive)

## Task Also C=C1C(=O)O[C@@H]2C[C@]3(C)[C@@H](C[C@H]12)[C@](C)(O)CC[C@@H]3O , if possible.
## Result 32.5 µM (inactive)

## Task Likewise for Clc1cc(Br)c2c3c(c(Br)cc(Cl)c13)C(Br)=C2Br ?
## Result 23.2 µM (inactive)

## Task // next record CS(=O)(=O)C1S(=O)(=O)OCCOS1(=O)=O
## Result > 100 µM (inactive)
